Biological target: NS3/4A protease gt 1b A156V (Hepatitis C virus genotype 1b, UniProt P26663, A1182V)
Test: HCV NS3 protease time-resolved fluorescence (TRF) assay, NS3/4A inhibitory activity (Ki), gt 1b A156V
Would you kindly list Ki for each of these molecules?
One number for each entry, in nM.

COMPOUND_SMILES	TARGET_DESC	Ki (nM)
COc1ccc2nc3c(nc2c1)O[C@@H]1C[C@H]2C(=O)N[C@]4(C(=O)NS(=O)(=O)C5CC5)C[C@H]4/C=C\CCCCC[C@H](NC(=O)O[C@@H]4C[C@H]4CCCCC3)C(=O)N2C1	NS3/4A protease gt 1b A156V (Hepatitis C virus genotype 1b, UniProt P26663, A1182V)	0.8

Batch of 2 molecules: report Ki for each.
1. CC1(S(=O)(=O)NC(=O)[C@@]23C[C@H]2/C=C\CCCCC[C@@H]2NC(=O)O[C@]4(C)C[C@H]4CCCCCc4nc5ccccc5nc4O[C@@H]4C[C@@H](C(=O)N3)N(C4)C2=O)CC1
2. COc1ccc2nc3c(nc2c1)O[C@@H]1C[C@H]2C(=O)N[C@]4(C(=O)NS(=O)(=O)C5(C)CC5)C[C@H]4/C=C\CCCCC[C@H](NC(=O)O[C@@H]4C[C@H]4CCCCC3)C(=O)N2C1

1: 0.5; 2: 0.6

Answer for every listed entry: what is its Ki? The entries follow.
1. COc1ccc2nc3c(nc2c1)O[C@@H]1C[C@H]2C(=O)N[C@]4(C(=O)NS(=O)(=O)C5(C)CC5)C[C@H]4/C=C\CCCCC[C@H](NC(=O)O[C@]4(C)C[C@H]4CCCCC3)C(=O)N2C1
2. CC1(S(=O)(=O)NC(=O)[C@@]23C[C@H]2/C=C\CCCCC[C@@H]2NC(=O)O[C@@H]4C[C@H]4CCCCCc4nc5ccccc5nc4O[C@@H]4C[C@@H](C(=O)N3)N(C4)C2=O)CC1

0.6
0.8

====

Biological target: NS3/4A protease gt 1b A156V (Hepatitis C virus genotype 1b, UniProt P26663, A1182V)
Assay: HCV NS3 protease time-resolved fluorescence (TRF) assay, NS3/4A inhibitory activity (Ki), gt 1b A156V
METRIC_NAME: pKi
Answers are plain numbers, as −log10 of the molar value.

MOLECULE	TARGET_DESC	OBSERVED
C[C@@]12C[C@H]1CCCCCc1nc3ccccc3nc1O[C@@H]1C[C@H]3C(=O)N[C@]4(C(=O)NS(=O)(=O)C5CC5)C[C@H]4/C=C\CCCCC[C@H](NC(=O)O2)C(=O)N3C1 [Example 10]	NS3/4A protease gt 1b A156V (Hepatitis C virus genotype 1b, UniProt P26663, A1182V)	9.22

Fill in: pKi of COc1ccc2nc3c(nc2c1)O[C@@H]1C[C@H]2C(=O)N[C@]4(C(=O)NS(=O)(=O)C5(C)CC5)C[C@H]4/C=C\CCCCC[C@H](NC(=O)O[C@@H]4CCC[C@H]4CCCCC3)C(=O)N2C1 [Example 2] is ___
8.96

====

Please go through the items and note down their Ki.
Biological target: NS3/4A protease gt 1b (Hepatitis C virus genotype 1b, UniProt P26663)
Assay: HCV NS3 protease time-resolved fluorescence (TRF) assay, NS3/4A inhibitory activity (Ki), gt 1b
Conditions: NS3/4A enzyme
Give bare numbers, in nM.

COMPOUND_SMILES	Ki (nM)
COc1ccc2nc3c(nc2c1)O[C@@H]1C[C@H]2C(=O)N[C@]4(C(=O)NS(=O)(=O)C5(C)CC5)C[C@H]4/C=C\CCCCC[C@H](NC(=O)O[C@@H]4C[C@H]4CCCCC3)C(=O)N2C1	0.04

Hi, could you look up Ki for each item in my list?
1. CC1(S(=O)(=O)NC(=O)[C@@]23C[C@H]2/C=C\CCCCC[C@@H]2NC(=O)O[C@@H]4CCC[C@H]4CCCCCc4nc5ccccc5nc4O[C@@H]4C[C@@H](C(=O)N3)N(C4)C2=O)CC1
2. COc1ccc2nc3c(nc2c1)O[C@@H]1C[C@H]2C(=O)N[C@]4(C(=O)NS(=O)(=O)C5CC5)C[C@H]4/C=C\CCCCC[C@H](NC(=O)O[C@@H]4C[C@H]4CCCCC3)C(=O)N2C1
3. COc1ccc2nc3c(nc2c1)O[C@@H]1C[C@H]2C(=O)N[C@]4(C(=O)NS(=O)(=O)C5CC5)C[C@H]4/C=C\CCCCC[C@H](NC(=O)O[C@]4(C)C[C@H]4CCCCC3)C(=O)N2C1

1. 0.02
2. 0.02
3. 0.02

====

Test: Plasma and liver concentrations and pharmacokinetics (Rat PK)
Type: in vivo
Conditions: 5 mg/kg, 5 mpk, liver concentration at 4 h
Please respond with reported concentration at 4 h for every item in the list.
Give bare numbers, in µM.

// solved cases for concentration at 4 h follow
COMPOUND	UNIT_SPEC	concentration at 4 h
O=C1N[C@H]2CCCCC/C=C\[C@@H]3C[C@@]3(C(=O)NS(=O)(=O)C3CC3)NC(=O)[C@@H]3C[C@H](CN3C2=O)Oc2nc3ccccc3nc2CCCCC[C@@H]2C[C@H]2O1 [Example 8]	µM	7
C[C@@]12C[C@H]1CCCCCc1nc3ccccc3nc1O[C@@H]1C[C@H]3C(=O)N[C@]4(C(=O)NS(=O)(=O)C5CC5)C[C@H]4/C=C\CCCCC[C@H](NC(=O)O2)C(=O)N3C1 [Example 10]	µM	15
CC1(S(=O)(=O)NC(=O)[C@@]23C[C@H]2/C=C\CCCCC[C@@H]2NC(=O)O[C@]4(C)C[C@H]4CCCCCc4nc5ccccc5nc4O[C@@H]4C[C@@H](C(=O)N3)N(C4)C2=O)CC1 [Example 11]	µM	4
COc1ccc2nc3c(nc2c1)O[C@@H]1C[C@H]2C(=O)N[C@]4(C(=O)NS(=O)(=O)C5CC5)C[C@H]4/C=C\CCCCC[C@H](NC(=O)O[C@@H]4C[C@H]4CCCCC3)C(=O)N2C1 [Example 3]	µM	13
COc1ccc2nc3c(nc2c1)O[C@@H]1C[C@H]2C(=O)N[C@]4(C(=O)NS(=O)(=O)C5(C)CC5)C[C@H]4/C=C\CCCCC[C@H](NC(=O)O[C@@H]4CCC[C@H]4CCCCC3)C(=O)N2C1 [Example 2]	µM	43

The following compounds each have a reported value; give each one's concentration at 4 h.
1. COc1ccc2nc3c(nc2c1)O[C@@H]1C[C@H]2C(=O)N[C@]4(C(=O)NS(=O)(=O)C5(C)CC5)C[C@H]4/C=C\CCCCC[C@H](NC(=O)O[C@]4(C)C[C@H]4CCCCC3)C(=O)N2C1 [Example 6]
2. CC1(S(=O)(=O)NC(=O)[C@@]23C[C@H]2/C=C\CCCCC[C@@H]2NC(=O)O[C@@H]4CCC[C@H]4CCCCCc4nc5ccccc5nc4O[C@@H]4C[C@@H](C(=O)N3)N(C4)C2=O)CC1 [Example 7]
3. COc1ccc2nc3c(nc2c1)O[C@@H]1C[C@H]2C(=O)N[C@]4(C(=O)NS(=O)(=O)C5(C)CC5)C[C@H]4/C=C\CCCCC[C@H](NC(=O)O[C@@H]4C[C@H]4CCCCC3)C(=O)N2C1 [Example 4]
4. COc1ccc2nc3c(nc2c1)O[C@@H]1C[C@H]2C(=O)N[C@]4(C(=O)NS(=O)(=O)C5CC5)C[C@H]4/C=C\CCCCC[C@H](NC(=O)O[C@@H]4CCC[C@H]4CCCCC3)C(=O)N2C1 [Example 1]
5. COc1ccc2nc3c(nc2c1)O[C@@H]1C[C@H]2C(=O)N[C@]4(C(=O)NS(=O)(=O)C5CC5)C[C@H]4/C=C\CCCCC[C@H](NC(=O)O[C@]4(C)C[C@H]4CCCCC3)C(=O)N2C1 [Example 5]
6. CC1(S(=O)(=O)NC(=O)[C@@]23C[C@H]2/C=C\CCCCC[C@@H]2NC(=O)O[C@@H]4C[C@H]4CCCCCc4nc5ccccc5nc4O[C@@H]4C[C@@H](C(=O)N3)N(C4)C2=O)CC1 [Example 9]

[24, 41, 19, 3.6, 20, 20]

====

Target: NS3/4A protease gt 3a (Hepatitis C virus genotype 3a, UniProt Q81258)
Experiment: HCV NS3 protease time-resolved fluorescence (TRF) assay, NS3/4A inhibitory activity (Ki), gt 3a
Conditions: NS3/4A enzyme
METRIC_NAME: pKi
Give bare numbers, as −log10 of the molar value.

Below, each entry is followed by its recorded pKi result.
COMPOUND_SMILES	OBSERVED
COc1ccc2nc3c(nc2c1)O[C@@H]1C[C@H]2C(=O)N[C@]4(C(=O)NS(=O)(=O)C5(C)CC5)C[C@H]4/C=C\CCCCC[C@H](NC(=O)O[C@@H]4C[C@H]4CCCCC3)C(=O)N2C1	9.57
COc1ccc2nc3c(nc2c1)O[C@@H]1C[C@H]2C(=O)N[C@]4(C(=O)NS(=O)(=O)C5(C)CC5)C[C@H]4/C=C\CCCCC[C@H](NC(=O)O[C@]4(C)C[C@H]4CCCCC3)C(=O)N2C1	9.49
COc1ccc2nc3c(nc2c1)O[C@@H]1C[C@H]2C(=O)N[C@]4(C(=O)NS(=O)(=O)C5(C)CC5)C[C@H]4/C=C\CCCCC[C@H](NC(=O)O[C@@H]4CCC[C@H]4CCCCC3)C(=O)N2C1	9.32

List the reported pKi of each compound below.
1. CC1(S(=O)(=O)NC(=O)[C@@]23C[C@H]2/C=C\CCCCC[C@@H]2NC(=O)O[C@@H]4CCC[C@H]4CCCCCc4nc5ccccc5nc4O[C@@H]4C[C@@H](C(=O)N3)N(C4)C2=O)CC1
2. COc1ccc2nc3c(nc2c1)O[C@@H]1C[C@H]2C(=O)N[C@]4(C(=O)NS(=O)(=O)C5CC5)C[C@H]4/C=C\CCCCC[C@H](NC(=O)O[C@]4(C)C[C@H]4CCCCC3)C(=O)N2C1

[9.14, 9.60]
